SYSTEM_NAME: recombinant human IL-6 (human, UniProt P05231 30-212)
Sequence (P05231 30-212 limits assumed): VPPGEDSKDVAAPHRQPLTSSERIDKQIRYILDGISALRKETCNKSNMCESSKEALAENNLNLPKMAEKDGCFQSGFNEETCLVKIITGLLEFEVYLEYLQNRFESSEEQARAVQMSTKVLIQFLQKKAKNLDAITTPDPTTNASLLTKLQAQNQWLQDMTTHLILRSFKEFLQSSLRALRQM
ASSAY_SUMMARY: SPR, IL-6 on CM5 chip, Fab lysate, 25 C
MEASURED_PARAMETER: koff (s⁻¹)
Expressed in s⁻¹, but write only the number.

Use the examples below as a reference point.
anti-IL-6 Fab, heavy chain T28A (Fab, V domains shown, see m39) VH: EVQLVESGGGLVQPGGSLRLSCAASGFAFSPFAMSWVRQAPGKGLEWVAKISPGGSWTYYSDTVTGRFTFSLDTSKSTAYLQMNSLRAEDTAVYYCARQLWGYYALDIWGQGTLVTVSS VL: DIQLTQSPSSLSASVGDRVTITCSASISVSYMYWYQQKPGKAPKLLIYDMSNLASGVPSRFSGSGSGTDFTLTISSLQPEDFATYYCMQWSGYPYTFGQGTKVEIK :: 0.00396
anti-IL-6 Fab, light chain T96I (Fab, V domains shown, see m39) VH: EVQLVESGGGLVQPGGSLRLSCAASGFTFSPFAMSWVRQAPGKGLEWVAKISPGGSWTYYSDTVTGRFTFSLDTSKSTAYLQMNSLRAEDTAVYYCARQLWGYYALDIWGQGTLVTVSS VL: DIQLTQSPSSLSASVGDRVTITCSASISVSYMYWYQQKPGKAPKLLIYDMSNLASGVPSRFSGSGSGTDFTLTISSLQPEDFATYYCMQWSGYPYIFGQGTKVEIK :: 0.00423

Let us move to another entry and its koff.
The recorded koff for anti-IL-6 Fab, heavy chain T63E (Fab, V domains shown, see m39) VH: EVQLVESGGGLVQPGGSLRLSCAASGFTFSPFAMSWVRQAPGKGLEWVAKISPGGSWTYYSDEVTGRFTFSLDTSKSTAYLQMNSLRAEDTAVYYCARQLWGYYALDIWGQGTLVTVSS VL: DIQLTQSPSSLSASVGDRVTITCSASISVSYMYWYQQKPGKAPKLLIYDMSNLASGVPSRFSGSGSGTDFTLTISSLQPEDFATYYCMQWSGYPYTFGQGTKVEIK is 5.53e-05
